run description: Long-term stability of ground cannabis packaged in Syqe cartridges at room temperature
Format: physicochemical
reported conditions: 25° C.±2° C., RH 60%±5%, baseline to 24 months; one-way ANOVA
assay readout: change in phytocannabinoid amount

1. CCCCCc1cc(O)c(C/C=C(\C)CCC=C(C)C)c(O)c1C(=O)O: decreased significantly
2. CCCCCc1cc(O)c2c(c1)OC(C)(C)c1ccc(C)cc1-2: increased significantly
3. CCCCCc1cc(O)c2c(c1)OC(C)(C)[C@@H]1CCC(C)=C[C@@H]21 [THC, (-)-Δ^9-trans-tetrahydrocannabinol]: increased significantly
4. CCCCCc1cc2c(c(O)c1C(=O)O)[C@@H]1C=C(C)CC[C@H]1C(C)(C)O2 (relative stereo): decreased significantly
